Hey, just so you know, these numbers are from PubChem BioAssay AID2060618.

tested on: 454973-116-R2-J3-PDC spheroids, percent test/control viability; assay: Anticancer human tumor 454973-116-R2-J3-PDC patient-derived pancreatic carcinoma cell line growth inhibition [CLK]; conditions: second compound 10 µM; first compound 0.3 µM; stronger effect = lower value; spheroids with HUVEC and MSC;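 further: spheroids exposed to compounds for 7 days before readout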
quantityMeasured: viability, T/C (%)
Unit % implied. Number only.

In: Specify viability, T/C for CC(C)CC(NC(=O)C(Cc1ccccc1)NC(=O)c1cnccn1)B(O)O (stereo not drawn) + CNC(=O)c1ccc(Nc2nc(OC3CCCC3)c3c(-c4ccc5nc(C)oc5c4)c[nH]c3n2)c(OC)c1 and stop.
Out: 0.7

In: Give viability, T/C for the following compound: CC(C)CC(NC(=O)C(Cc1ccccc1)NC(=O)c1cnccn1)B(O)O (stereo not drawn) + CN1CCN(c2cc(C(=O)Nc3cc4cc(-c5cnn(C)c5)ccc4cn3)ccn2)CC1
Out: 0.17

In: Give the measured viability, T/C for NC(=O)C(=Cn1cnc(-c2cc(C(F)(F)F)cc(C(F)(F)F)c2)n1)c1cncnc1 + CNC(=O)c1ccc(Nc2nc(OC3CCCC3)c3c(-c4ccc5nc(C)oc5c4)c[nH]c3n2)c(OC)c1
Out: 19.9
